# Test system: cell lines from the Cancer Cell Line Encyclopedia (CCLE)
# Assay summary: High-throughput cell viability assay, CCLE cell line panel (n = 356)
# Type: cell-based, human
# Condition summary: Homo sapiens, read-out: NVP- CFC218 IC50 (µM), cell line C3A, liver, TP53 WT
Observed property: IC50

Requested read-out: IC50. Entry: COc1cc2c(cc1OC(C)C)[C@H](c1ccc(Cl)cc1)N(c1ccc(N(C)C[C@H]3CC[C@H](N4CCNC(=O)C4)CC3)cc1)C(=O)C2
> 8 µM

* * *

# Tested on: cell lines from the Cancer Cell Line Encyclopedia (CCLE)
# Assay summary: High-throughput cell viability assay, CCLE cell line panel (n = 356)
# Type: cell-based, human
# Condition summary: Homo sapiens, EM-2, TP53 MUT
Observed property: IC50

Requested read-out: IC50. Entry: COc1cc2c(cc1OC(C)C)[C@H](c1ccc(Cl)cc1)N(c1ccc(N(C)C[C@H]3CC[C@H](N4CCNC(=O)C4)CC3)cc1)C(=O)C2 [NVP-CFC218]
> 8 µM
